- Method Description: E. coli acrAB mutant growth effects, primary screen, E. coli filamentation inducers, strain DRC39, OD650, 24 h (AID 1178);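 note: growth measured as culture turbidity by optical density at 650 nm; test concentration not given here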
- Experimental Parameters: higher = more signal, called active from +8 up or from −8 down
Endpoint: z-score

Molecule	Measured
COCC1=C2[C@@H](CCc3ccccc3)OB(O)C[C@@H]2[C@@H]2C(=O)N(C)C(=O)[C@@H]2C1	-0.0919
COCCOC(=O)N1C(=O)[C@@]2(c3ccccc31)[C@H](c1ccccc1OCCO)N1[C@H](c3ccccc3)[C@H](c3ccccc3)OC(=O)[C@H]1[C@@H]2C(=O)N1CCCCCCC1	0.542
C=C(/C(=C/C[C@H](OC(=O)c1ccncc1)c1ccccc1OCCO)c1cnc2ccccc2c1)C(C)C	0.395
COCCOC(=O)N1C(=O)[C@@]2(c3cc(C#CCC(C(=O)OC)C(=O)OC)ccc31)[C@H](c1ccc(O)cc1)N1[C@H](c3ccccc3)[C@H](c3ccccc3)OC(=O)[C@H]1[C@@H]2C(=O)NC[C@H](O)c1ccccc1	0.416
CCOC(=O)C[C@H]1[C@H](OC(=O)c2ccccc2-c2ccccc2)[C@@H](NC(=O)c2ccc3ccccc3n2)c2cc(OCCCO)ccc2N1C(=O)c1ccccc1	-0.745
C=CCN1C(=O)[C@@]2(O[C@@H](CCO)[C@H]([Si](C)(C)c3ccc(OC)cc3)[C@H]2C)c2cc(N3CCOC3=O)ccc21	0.891
C[C@@H]1ON(c2ccc(I)cc2)[C@H](c2ccc(OC(=O)OC(C)(C)C)cc2)[C@H]1C(=O)N1C(=O)OC[C@H]1Cc1ccccc1	1.81
O=C1C2C=CC(C(O)c3cc(C(F)(F)F)cc(C(F)(F)F)c3)N(Nc3ccccc3F)C2C(=O)N1c1ccccc1 (centres undefined)	-2.31
COCC(=C=CC[C@@H](O)c1cccc(OCCO)c1)CCO	0.583
COC(=O)[C@@]1(Cc2ccc(F)cc2)[C@H]2c3cc(C(=O)N4CCCC4)n(CC4CC4)c3C[C@H]2CN1C(=O)c1ccccc1	-0.688
CC(C)C(=C=CC[C@H](O)c1cccc(OCCO)c1)CCO	0.353
COC(=O)C1N=C(c2ccc(OCCCO)cc2)N(c2ccccc2)O1 (centres undefined)	0.642
COCCCNC(=O)[C@@]1(c2ccc([N+](=O)[O-])cc2)CC(=O)N(CC23CC4CC(CC(C4)C2)C3)[C@@H]1c1ccc(CO)cc1I	-0.0284
COCCOC(=O)N1C(=O)[C@@]2(c3cc(C#CCCO)ccc31)[C@H](C(=O)N1CCCCCCC1)[C@H]1C(=O)O[C@H](c3ccccc3)[C@H](c3ccccc3)N1[C@@H]2c1ccccc1OCCO	-0.759

====

- Study Target: Fibroblast growth factor 2 (Homo sapiens) (UniProt P09038)
- Sequence (P09038 whole entry, looked up): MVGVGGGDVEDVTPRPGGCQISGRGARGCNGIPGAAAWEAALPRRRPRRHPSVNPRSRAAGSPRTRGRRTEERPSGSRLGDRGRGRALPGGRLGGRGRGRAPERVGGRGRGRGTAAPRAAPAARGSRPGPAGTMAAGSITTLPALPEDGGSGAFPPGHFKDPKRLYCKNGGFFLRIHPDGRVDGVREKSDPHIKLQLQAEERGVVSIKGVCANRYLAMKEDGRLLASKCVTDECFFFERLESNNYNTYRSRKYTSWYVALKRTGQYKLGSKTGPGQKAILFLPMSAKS
- Method Description: FGF2 binders on small-molecule microarrays, primary screen, biochemical, small-molecule microarray, 635/667 nm fluorescence (AID 1133)
- Experimental Parameters: small-molecule microarray binding, FGF2, fluorescence 635/667; higher = more signal

Compound	composite z-score
COC(=O)[C@@]1(Cc2ccccc2CN=[N+]=[N-])N=C(c2ccc(OCCCO)cc2)O[C@H]1c1ccccc1	0.255
CC=CC(O)C1C=CC2C(=O)NC(=O)C2N1Nc1ccccn1 (configuration not stated)	0.352
COCCOC(=O)N1C(=O)[C@@]2(c3ccccc31)[C@H](c1ccc(OCCO)cc1)N1[C@H](c3ccccc3)[C@H](c3ccccc3)OC(=O)[C@H]1[C@@H]2C(=O)N1CCCCCCC1	1.99
[N-]=[N+]=Nc1ccccc1C[C@]1(C(=O)O)N=C(c2ccc(OCCCO)cc2)O[C@H]1c1ccccc1	-0.619
C=CCNC(=O)[C@H]1[C@@H]2C(=O)O[C@@H](c3ccccc3)[C@@H](c3ccccc3)N2[C@@H](c2ccc(O)cc2)[C@]12C(=O)N(C(=O)OCCOC)c1ccc(C#CCC(C(=O)OC)C(=O)OC)cc12	1.5
Cc1ccccc1C(O)C1C=CC2C(=O)NC(=O)C2N1Nc1ccc(Cl)cc1Cl (configuration not stated)	-0.344
CN(C)C(=O)[C@@]1(Cc2ccccc2N=[N+]=[N-])N=C(c2ccc(OCCCO)cc2)O[C@H]1c1ccccc1	1.37
